These measurements were taken from patent US9346809B2.

Items are presented alongside their recorded EC50.
target: JAK2 (catalytic domain, His-tag) (Homo sapiens); construct: All four purified enzymes contain only the catalytic domain; His (N); purchased Carna Biosciences, Inc; host or cells: baculovirus expression system; assay: JAK kinase assay (HTRF, phosphorylation of TK substrate-biotin), JAK2; assay type: biochemical; conditions: HTRF assay, ATP at Km (4 μM); read-out: JAK2 kinase inhibitory activity (EC50 indicator)
Sequence (O60674 849-1124 limits assumed): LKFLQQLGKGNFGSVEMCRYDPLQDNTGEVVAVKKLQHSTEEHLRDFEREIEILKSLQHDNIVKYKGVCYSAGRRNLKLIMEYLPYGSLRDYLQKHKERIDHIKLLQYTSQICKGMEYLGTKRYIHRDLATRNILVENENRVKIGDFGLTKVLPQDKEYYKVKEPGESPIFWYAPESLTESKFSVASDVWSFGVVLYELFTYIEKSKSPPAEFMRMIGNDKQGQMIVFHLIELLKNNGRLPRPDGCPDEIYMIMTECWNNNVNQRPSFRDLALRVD

Solved cases below.
{"compound": "COC(=O)c1cc2c(N3CCN(C(=O)CCCC#N)C4(CC4)C3)ncnc2[nH]1 [Example 339]", "EC50": "> 500 nM"}
{"compound": "COC(=O)c1cc2c(N3CCN(C(=O)Cc4ccc(F)cc4)C4(CC4)C3)ncnc2[nH]1 [Example 337]", "EC50": "> 500 nM"}
{"compound": "Cc1cc(S(N)(=O)=O)ccc1C(=O)N1[C@@H]2CC[C@H]1CN(c1ncnc3[nH]ccc13)C2 [Example 391]", "EC50": "100 to 500 nM"}
{"compound": "N#CCc1cccc(CC(=O)N2CCN(c3ncnc4[nH]cc(Cl)c34)CC23CC3)c1 [Example 318]", "EC50": "> 500 nM"}
{"compound": "COc1cnc2[nH]ccc2c1N1CCN(C(=O)Cc2ccc(C#N)cc2)C2(CC2)C1 [Example 295]", "EC50": "< 100 nM"}

Query Cc1cc(S(N)(=O)=O)ccc1OCC(=O)N1CCN(c2ncnc3[nH]ccc23)CC12CC2 [Example 411] yields EC50 of < 100 nM

Query COc1cnc2[nH]ccc2c1N1CCN(C(=O)CCCC#N)C2(CC2)C1 [Example 293] yields EC50 of < 100 nM

Query Cc1c[nH]c2ncnc(N3CCN(C(=O)Cc4cccc(C#N)c4)C4(CC4)C3)c12 [Example 333] yields EC50 of > 500 nM
